# assayed_system: WT EGFR (Homo sapiens (Human), UniProt P00533)
# Sequence (P00533 25-1210): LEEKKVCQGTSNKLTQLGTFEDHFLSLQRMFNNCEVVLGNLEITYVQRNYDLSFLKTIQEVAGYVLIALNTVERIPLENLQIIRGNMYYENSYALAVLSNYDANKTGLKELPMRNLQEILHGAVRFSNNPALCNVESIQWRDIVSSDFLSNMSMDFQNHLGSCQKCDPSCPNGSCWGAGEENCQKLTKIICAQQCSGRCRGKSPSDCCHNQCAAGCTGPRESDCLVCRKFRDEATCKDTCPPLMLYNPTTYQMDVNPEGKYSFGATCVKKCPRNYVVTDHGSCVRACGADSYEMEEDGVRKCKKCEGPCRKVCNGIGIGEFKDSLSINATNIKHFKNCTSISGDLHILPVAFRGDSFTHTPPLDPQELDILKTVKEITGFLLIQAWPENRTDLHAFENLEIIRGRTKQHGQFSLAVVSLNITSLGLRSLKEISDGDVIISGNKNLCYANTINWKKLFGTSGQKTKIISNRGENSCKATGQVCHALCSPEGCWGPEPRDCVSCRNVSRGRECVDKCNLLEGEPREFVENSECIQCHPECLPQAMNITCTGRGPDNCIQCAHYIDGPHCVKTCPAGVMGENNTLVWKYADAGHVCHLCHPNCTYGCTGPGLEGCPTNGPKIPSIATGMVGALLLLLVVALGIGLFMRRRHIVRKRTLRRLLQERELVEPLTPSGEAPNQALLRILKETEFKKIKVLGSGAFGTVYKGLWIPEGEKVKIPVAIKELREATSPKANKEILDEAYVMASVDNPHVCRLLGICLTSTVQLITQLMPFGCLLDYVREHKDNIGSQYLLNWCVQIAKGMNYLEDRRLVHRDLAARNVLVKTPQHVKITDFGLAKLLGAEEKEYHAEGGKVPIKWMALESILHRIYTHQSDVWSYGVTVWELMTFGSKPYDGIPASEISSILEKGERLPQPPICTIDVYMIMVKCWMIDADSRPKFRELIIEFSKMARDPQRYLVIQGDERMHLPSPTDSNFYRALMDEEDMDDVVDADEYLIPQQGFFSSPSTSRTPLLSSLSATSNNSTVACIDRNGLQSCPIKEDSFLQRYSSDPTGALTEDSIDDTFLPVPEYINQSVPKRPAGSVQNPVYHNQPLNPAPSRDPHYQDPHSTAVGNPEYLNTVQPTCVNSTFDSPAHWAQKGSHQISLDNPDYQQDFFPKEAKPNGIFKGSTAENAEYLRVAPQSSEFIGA
# protocol_summary: EGFR (Y1068) phosphorylation in NCI-H838 cells (MSD)
# condition_notes: p-EGFR (Y1068)/total EGFR, 4 h, hEGF stimulation
pIC50: −log10 of the molar value.
measured_endpoint: pIC50

INPUT: Provide pIC50, recorded with WT EGFR (Homo sapiens (Human), UniProt P00533), of COc1ccc2ncnc(Nc3ccc(Oc4ccn5ncnc5c4)c(C)c3)c2c1OC1CCN(C)CC1F (single isomer, unassigned) [Compound 3]
OUTPUT: < 5.52

INPUT: Provide WT EGFR (Homo sapiens (Human), UniProt P00533) pIC50 reading for [2H]C1(Oc2cc(OC)cc3ncnc(Nc4ccc(Oc5ccn6ncnc6c5)c(C)c4)c23)CCN(C)CC1(F)F (racemic) [Compound 27] .
OUTPUT: 5.29

INPUT: Please indicate recorded pIC50 of Cc1cc(Nc2ncnc3cc(F)cc(OC4CCN(C)CC4(F)F)c23)ccc1Oc1ccn2ncnc2c1 (single isomer, unassigned) [Compound 17] measured with WT EGFR (Homo sapiens (Human), UniProt P00533).
OUTPUT: < 5.52

INPUT: Give reported pIC50 for Cc1cc(Nc2ncnc3cccc(O[C@@H]4C[C@H]5CC[C@@H](C4)N5C)c23)ccc1Oc1ccn2ncnc2c1 [Compound 20] (WT EGFR (Homo sapiens (Human), UniProt P00533))
OUTPUT: < 5.00

INPUT: Fill in: pIC50 on WT EGFR (Homo sapiens (Human), UniProt P00533), entry Cc1cc(Nc2ncnc3cccc(OC4CCN(C)CC4(F)F)c23)ccc1Oc1ccn2ncnc2c1 (single isomer, unassigned) [Compound 1]
OUTPUT: < 5.52

INPUT: Look up and report pIC50, with WT EGFR (Homo sapiens (Human), UniProt P00533) as system, for COc1cc(O[C@H]2CCN(C)CC2(F)F)c2c(Nc3ccc(Oc4ccn5ncnc5c4)c(C)c3)ncnc2c1 (single isomer, unassigned) [Compound 6]
OUTPUT: 5.48

INPUT: Supply pIC50 measured with WT EGFR (Homo sapiens (Human), UniProt P00533) for Cc1cc(Nc2ncnc3cccc(OC4CCN(C)CC4(F)F)c23)ccc1Oc1ccc2ccnn2c1 (single isomer, unassigned) [Compound 9] .
OUTPUT: 5.99

INPUT: Consider the molecule COc1ccc2ncnc(Nc3ccc(Oc4cc5ncnn5cc4F)c(C)c3)c2c1OC1CCN(C)CC1(F)F (single isomer, unassigned) [Compound 23] tested on WT EGFR (Homo sapiens (Human), UniProt P00533); state its pIC50.
OUTPUT: < 5.00
